# SYSTEM NAME: Platelet-activating factor acetylhydrolase 2, cytoplasmic (Homo sapiens)
# ASSAY REMARKS: inhibition of cytoplasmic PAF acetylhydrolase 2 – biochemical, fluorescence polarization, human, primary screen (AID 492956);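 also: inhibitors block probe labeling of enzyme so polarization drops; 0% = enzyme with DMSO and 100% = wells lacking PAFAH2 protein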
# CONDITIONS: recombinant PAFAH2, FP-rhodamine activity probe, at 3.39 µM, stronger effect = higher value
The whole screen tested about 340,000 compounds, of which about 3,300 (0.97%) were called active. This excerpt belongs to a sample that is enriched for actives.
RECORDED ENDPOINT: inhibition

| CHEMICAL STRING | inhibition |
| --- | --- |
| O=C(COC(=O)c1cccnc1Cl)Nc1ccc(S(=O)(=O)N2CCOCC2)cc1 | -2.28% (inactive) |
| O=C(COC(=O)c1ccc(Br)o1)NC12CC3CC(CC(C3)C1)C2 | 26.2% (inactive) |

Reported inhibition of O=C(Nc1nc(-c2ccco2)c(-c2ccco2)s1)c1ccco1 : 22.9% (inactive)

Reported inhibition ( O=C(OCC(=O)c1cccs1)c1ccc([N+](=O)[O-])o1 ) = -2.46% (inactive)

For O=[N+]([O-])c1cc(Cl)cc(/C=N/NC(=S)Nc2cc(S(=O)(=O)N3CCOCC3)ccc2Cl)c1O the compound record lists inhibition as 85.2% (active)

// recorded inhibition for NC(=O)COc1ccccc1C(=O)NC12CC3CC(CC(C3)C1)C2 : 6.96% (inactive)

According to the records, this compound O=C(COC(=O)c1ccc([N+](=O)[O-])o1)NC12CC3CC(CC(C3)C1)C2 displays inhibition of 59.8% (active)

Lab book: inhibition of O=S(=O)(c1ccc(NC(=S)NN=C(C2CC2)C2CC2)cc1)N1CCOCC1 noted as 8.93% (inactive)

Field inhibition (entry Cc1cc(C(=O)NNC(=O)CCC2CCCCC2)c(C)o1 ) reads 4.96% (inactive)

inhibition reported for this compound Cc1cc(C(=O)NCCc2ccc(Cl)cc2)c(C)o1 : 4.91% (inactive)

----------
# SYSTEM NAME: Platelet-activating factor acetylhydrolase 2, cytoplasmic (Homo sapiens) (UniProt Q99487)
# ASSAY REMARKS: inhibition of cytoplasmic PAF acetylhydrolase 2 – biochemical, fluorescence polarization, human, primary screen (AID 492956);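 also: inhibitors block probe labeling of enzyme so polarization drops; 0% = enzyme with DMSO and 100% = wells lacking PAFAH2 protein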
# CONDITIONS: recombinant PAFAH2, FP-rhodamine activity probe, at 3.39 µM, stronger effect = higher value
Among all 340,000 compounds or so, about 3,300 (0.97%) were called active. For the sample, actives were picked, then their nearest neighbours and some compounds at random.
RECORDED ENDPOINT: inhibition (%)
Numbers only here, please. The scale is %.

Consider the reported inhibition for these compounds:
| COMPOUND | UNIT STRING | inhibition |
| --- | --- | --- |
| COc1ccc(OC)c(/C=N/NC(=O)c2ccc[n+](CC(=O)c3ccccc3)c2)c1 | % | -2.42 |
| CCCNC(=O)CCc1c(C)nc2c(c(C)nn2-c2ccc(C)cc2)c1C | % | -8.03 |
| COc1ccc(C(=O)O/N=C(\N)Cc2ccc(Cl)cc2Cl)cc1OC | % | 85.3 |
| C/C(Cn1nnc2ccccc21)=N\OC(=O)c1cc(F)c(F)cc1Cl | % | 75.7 |
| O=C(CSc1nnc(COc2ccc(Cl)cc2)n1Cc1ccco1)N1CCNC1=O | % | 6.03 |

// field: inhibition; key: Cn1c(Cn2nnc3ccccc32)nnc1SCC(=O)c1ccccc1F ; value = -0.21

// sample CC(NC(=O)COC(=O)c1ccc2c(c1)OCO2)c1ccccc1 (stereo not given) , its inhibition was 55

Per the records, this compound ( O=C1NCC(Nc2ccccc2)C(=O)N1 (stereo not given) ) has inhibition equal to 7.66

Recorded inhibition (compound CCc1ccc(C(=O)OCC(=O)Nc2cccc(S(=O)(=O)NC3=NCCCCC3)c2)cc1 ): 52.3

Documented inhibition of CN(C)S(=O)(=O)c1ccc(NC(=O)COC(=O)c2n[nH]c3ccccc23)cc1 : -1.53

Entry under test: COc1ccc(CCn2ccc(O)c(Cc3ccc(Cl)cc3Cl)c2=O)cc1OC . Its inhibition was -2.38

compound Cc1cnc(C(=O)OCC(=O)NCCCc2ccccc2)cn1 , inhibition observed: 4.7

Reported inhibition of O=C(COC(=O)c1cccc(Cl)c1)NC1CCCCCCC1 : 82.5

Entry under test: CCOc1ncccc1C(=O)OCC(=O)NC1CC1 . Its inhibition was 15.7

Please fill in: inhibition reported for COCCN(CCOC)c1nc(N)c2c(N)nc3c(c2c1C#N)CC(=O)N3Cc1ccc(Cl)cc1 = 5.58

In plain terms, CC(NC(=O)COC(=O)c1cc(=O)[nH]c2ccccc12)c1ccccc1 (stereo not given) has a documented inhibition of 1.93

get_value(item= CC(C)Cc1nnc(NC(=O)CCC(=O)Nc2ccc3cn[nH]c3c2)s1 , readout=inhibition) returns 1.65
